- TEST_NAME: recombinant barcode read abundance after kanamycin selection (control-corrected) (log10(CPM+1)); higher = more efficient recombination; sequences stand for … in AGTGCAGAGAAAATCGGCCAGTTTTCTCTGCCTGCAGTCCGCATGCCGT…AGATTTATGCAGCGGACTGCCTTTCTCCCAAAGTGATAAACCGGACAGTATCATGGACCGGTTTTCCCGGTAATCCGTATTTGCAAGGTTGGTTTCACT; site = the 11-nt target;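 note: IS621 recombinase and bridge RNA in Escherichia coli cells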
Response key: rule met means recombinant barcode read abundance (log10) >= 0.4; rule not met means recombinant barcode read abundance (log10) < 0.4.

For orientation, consider the following solved cases.
ENTRY_SEQUENCE	GROUP_LABEL
ACATGTCCTTGGGTTCTAACCTGTTGCGT (site ACATGTCCTAG)	rule not met
ACTAAGCCTTGGGTTCTAACCTGTTGCGG (site ACTAAGCCTCC)	rule met
AGTTGCCCTTGGGTTCTAACCTGTTGCCT (site ATTTGCCCTAG)	rule not met
CGGGACCCTTGGGTTCTAACCTGTTGCCT (site CGGGACCCTAG)	rule met
AGTCAGTCTTGGGTTCTAACCTGTTGCCA (site AGTTAGTCTTG)	rule not met

Problem: Textbook exercise: given the entry GAGCCACCTTGGGTTCTAACCTGTTGCCT (site TAGCCACCTAG) , state whether its recombinant barcode read abundance (log10) is greater than or equal to 0.4.
Solution: rule met

Problem: How about this sequence: GATGGGCCTTGGGTTCTAACCTGTTGCGT (site GATGGGCCTAC)
Solution: rule met

Problem: How about this sequence: GAGAAGACTTGGGTTCTAACCTGTTGCGT (site ACTCGTCCTTA)
Solution: rule not met

Problem: How about this sequence: ATTGGGGCTTGGGTTCTAACCTGTTGCAG (site ATTGGGGCTCT)
Solution: rule met

Problem: How about this sequence: GTCTCATCTTGGGTTCTAACCTGTTGCAT (site GTCTCATCTAT)
Solution: rule not met

Origin of measurements: the supplement of paper PMC11208160
